Molecular target: UniProtKB O15151
Sequence (O15151 1-490): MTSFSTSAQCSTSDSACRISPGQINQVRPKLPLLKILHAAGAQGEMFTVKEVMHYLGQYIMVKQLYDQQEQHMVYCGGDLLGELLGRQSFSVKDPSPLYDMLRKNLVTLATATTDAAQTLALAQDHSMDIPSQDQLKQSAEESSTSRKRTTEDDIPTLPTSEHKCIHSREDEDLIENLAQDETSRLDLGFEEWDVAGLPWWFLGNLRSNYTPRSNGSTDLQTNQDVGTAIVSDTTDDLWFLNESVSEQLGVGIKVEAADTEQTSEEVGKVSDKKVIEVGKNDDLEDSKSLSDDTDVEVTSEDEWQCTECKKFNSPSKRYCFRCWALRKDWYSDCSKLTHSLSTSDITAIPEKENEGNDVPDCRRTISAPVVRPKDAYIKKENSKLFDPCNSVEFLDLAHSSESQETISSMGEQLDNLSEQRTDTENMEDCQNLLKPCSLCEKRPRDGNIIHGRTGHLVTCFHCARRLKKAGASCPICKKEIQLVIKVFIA
pIC50: −log10 of the molar value. Where a name gives a salt, the structure may show the parent alone.

| molecule | pIC50 |
| --- | --- |
| CCOc1cc(Cl)c(S(C)(=O)=O)cc1C1=N[C@@](C)(c2ccc(Cl)cc2)[C@@](C)(c2ccc(Cl)cc2)N1C(=O)N1CCN(CC(=O)O)CC1 [Example 35, hydrochloride] | 5.54 |
| CCOc1cc(Cl)c(S(=O)(=O)NC(C)(C)C)cc1C1=N[C@@](C)(c2ccc(Cl)cc2)[C@@](C)(c2ccc(Cl)cc2)N1C(=O)N1CCN(CCC(O)CO)CC1 (some centres unmarked) | 5.95 |
| CCOc1cc(Cl)c(S(=O)(=O)NC(C)(C)C)cc1C1=N[C@@](C)(c2ccc(Cl)cc2)[C@@](C)(c2ccc(Cl)cc2)N1C(=O)N1CCN(CC(=O)NCCOC)CC1 | 5.87 |
| CC(C)Oc1cc(Cl)c(S(=O)(=O)N2CCCC2)cc1C1=N[C@@](C)(c2ccc(Cl)cc2)[C@@](C)(c2ccc(Cl)cc2)N1C(=O)N1CCN(CCCS(C)(=O)=O)CC1 | 6.64 |
| CCOc1cc(Cl)c(S(C)(=O)=O)cc1C1=N[C@@](C)(c2ccc(Cl)cc2)[C@@](C)(c2ccc(Cl)cc2)N1C(=O)N1CCC2(CCN(CC(N)=O)CC2)CC1 | 5.83 |
| CCOc1cc(Cl)c(S(C)(=O)=O)cc1C1=N[C@@](C)(c2ccc(Cl)cc2)[C@@](C)(c2ccc(Cl)cc2)N1C(=O)N1CCC(CC(N)=O)CC1 [Example 39] | 5.99 |
| CCOc1cc(Cl)c(S(C)(=O)=O)cc1C1=N[C@@](C)(c2ccc(Cl)cc2)[C@@](C)(c2ccc(Cl)cc2)N1C(=O)N1CCN(CC(=O)N2CCOCC2)CC1 | 5.87 |
| CC(C)Oc1cc(Cl)c(S(N)(=O)=O)cc1C1=N[C@@](C)(c2ccc(Cl)cc2)[C@@](C)(c2ccc(Cl)cc2)N1C(=O)N1CCC(CC(N)=O)CC1 | 6.55 |
